Origin of measurements: patent US12077503B2

I'd appreciate it if you could supply melting point values for the items below.

Specify melting point for CN1C[C@H](c2ccc(C(F)(F)F)cc2)[C@@H](C(=O)Nc2cccc(F)c2Cl)C1=O [Compound 938] and stop.
169 to 172 °C

Specify melting point for CC(C)=CC1CNC(=O)C1C(=O)Nc1cccc(F)c1F (stereo not drawn) [Compound 1012] and stop.
162 to 166 °C

Specify melting point for C=C(C)c1cccc([C@H]2CN(C)C(=O)[C@@H]2C(=O)Nc2cccc(F)c2C)c1 [Compound 1086] and stop.
89 to 93 °C

###

Tested on: blackgrass (Alopecurus myosuroides)
Assay: Test A postemergence
Format: in vivo
Conditions: 500 g ai/ha, postemergence; visual injury, 0 to 100 scale (0 no effect, 100 complete control), approx. 10 d
From the text: […]
I'd appreciate it if you could supply Plant response rating, Blackgrass values for the items below.
Just the number, please, no unit attached.

Specify Plant response rating, Blackgrass for O=C1NCC(c2ccc(I)cc2)C1C(=O)Nc1cccc(F)c1 (racemic) [Compound 703] and stop.
0

Specify Plant response rating, Blackgrass for O=C1NCC(c2ccc(I)cc2)C1C(=O)Nc1ccccc1F (racemic) [Compound 702] and stop.
0

Specify Plant response rating, Blackgrass for CN1CC(c2ccc(C(C)(F)F)cc2)C(C(=O)Nc2ccc(F)cc2F)C1=O (stereo not drawn) [Compound 693] and stop.
50

###

Tested on: corn (Zea mays)
Assay: Test A postemergence
Format: in vivo
Settings: 125 g ai/ha, postemergence; visual rating after approx. 10 d, 0 to 100 scale (0 no effect, 100 complete control)
OBSERVABLE: Plant response rating, Corn
Just the number, please, no unit attached.

Recall the reported Plant response rating, Corn of Cc1ccc(C2CNC(=O)C2C(=O)Nc2ccc(F)cc2F)cc1C(F)(F)F (racemic) [Compound 655] when tested on corn (Zea mays).
0

Recall the reported Plant response rating, Corn of C=CCN1CC(c2cccc(C(F)(F)F)c2)C(C(=O)Nc2ccccc2F)C1=O (centres unmarked) when tested on corn (Zea mays).
0

Recall the reported Plant response rating, Corn of O=C1NCC(c2cc(Cl)sc2Cl)C1C(=O)Nc1cccc(F)c1F (centres unmarked) when tested on corn (Zea mays).
0

Recall the reported Plant response rating, Corn of O=C1NCC(c2ccsc2Cl)C1C(=O)Nc1ccccc1F (centres unmarked) when tested on corn (Zea mays).
0

Recall the reported Plant response rating, Corn of CCc1cccc(C2CN(C)C(=O)C2C(=O)Nc2ccccc2S(C)(=O)=O)c1 (centres unmarked) when tested on corn (Zea mays).
20

Recall the reported Plant response rating, Corn of Cc1ccc(C2CNC(=O)C2C(=O)Nc2ccc(F)cc2F)cc1C(F)(F)F (racemic) [Compound 680] when tested on corn (Zea mays).
20

Recall the reported Plant response rating, Corn of Cc1ccc(C2CN(C)C(=O)C2C(=O)Nc2ccccc2S(C)(=O)=O)cc1 (centres unmarked) when tested on corn (Zea mays).
30

Recall the reported Plant response rating, Corn of Cc1ccc(C2CN(C)C(=O)C2C(=O)Nc2ccccc2F)cc1 (centres unmarked) when tested on corn (Zea mays).
50

###

System: giant foxtail (Setaria faberii)
Assay: Test A postemergence
Type: in vivo
Details: Setaria faberi, post-emergence, 240 h, Postemergence, 31 g ai/ha; 0 is no effect, 100 is complete control; read-out: Foxtail, Giant plant response rating (0 to 100 scale)
Response field label: string, one of Condition met (pest or weed control at 31 g/ha strictly below 70%) or Condition not met.

Dear colleague, could you confirm whether pest or weed control at 31 g/ha of Cc1cccc([C@H]2CN(C)C(=O)[C@@H]2C(=O)Nc2cccnc2F)c1 [Compound 1345] falls below 70%? Thanks.
Condition met

Dear colleague, could you confirm whether pest or weed control at 31 g/ha of COc1ccc([C@H]2CN(C)C(=O)[C@@H]2C(=O)Nc2cccc(F)c2F)cc1 [Compound 1343] falls below 70%? Thanks.
Condition met

Dear colleague, could you confirm whether pest or weed control at 31 g/ha of CN1C[C@H](c2ccc(C#N)c(F)c2)[C@@H](C(=O)Nc2ccccc2F)C1=O [Compound 1190] falls below 70%? Thanks.
Condition met

Dear colleague, could you confirm whether pest or weed control at 31 g/ha of O=C1NC[C@H](c2ccc(F)c(Oc3ccccc3)c2)[C@H]1C(=O)Nc1cccc(F)c1F [Compound 1258] falls below 70%? Thanks.
Condition met

Dear colleague, could you confirm whether pest or weed control at 31 g/ha of CN1C[C@H](c2ccc(Cl)c(F)c2)[C@@H](C(=O)Nc2ccc(F)c(F)c2F)C1=O [Compound 1266] falls below 70%? Thanks.
Condition not met

Dear colleague, could you confirm whether pest or weed control at 31 g/ha of O=C1NC[C@H](c2cccc(C(F)(F)F)c2)[C@H]1C(=O)Nc1ccccc1-n1cncn1 [Compound 1290] falls below 70%? Thanks.
Condition met

###

System: barnyardgrass (Echinochloa crus-galli)
Assay: Test G Pre-Emergence Protocol
Assay type: in vivo
Conditions: Echinochloa crus-galli, pre-emergence, 312 h, 250 g ai/ha, evaluated after 13 days, read-out: Barnyardgrass damage rating (100=total damage to plant; 0=no damage to plant)
OBSERVABLE: pest or weed control at 250 g/ha (%)
Field: numeric (%). Do not append units.

Specify pest or weed control at 250 g/ha for CN1C[C@H](c2ccc(C(F)(F)F)cc2)[C@@H](C(=O)Nc2cncnc2Cl)C1=O (racemic) and stop.
0

Specify pest or weed control at 250 g/ha for CN1C[C@@H](c2ccc(C(F)(F)F)cc2)[C@H](C(=O)Nc2cccnn2)C1=O (racemic) and stop.
0

Specify pest or weed control at 250 g/ha for CN1C[C@H](c2ccc(C(F)(F)F)cc2)[C@@H](C(=O)Nc2cccc3c2C(=O)OC3)C1=O (racemic) and stop.
10

Specify pest or weed control at 250 g/ha for CN1C[C@@H](c2ccc(C(F)(F)F)cc2)[C@H](C(=O)Nc2ccc(F)nn2)C1=O (racemic) and stop.
0

Specify pest or weed control at 250 g/ha for Cc1cc(F)ncc1NC(=O)[C@H]1C(=O)N(C)C[C@@H]1c1ccc(C(F)(F)F)cc1 (racemic) and stop.
70

Specify pest or weed control at 250 g/ha for COc1cc([C@@H]2CN(C)C(=O)[C@H]2C(=O)Nc2cccc(F)c2F)ccc1Cl (racemic) and stop.
80

Specify pest or weed control at 250 g/ha for COc1c(Cl)ccc([C@H]2CN(C)C(=O)[C@@H]2C(=O)Nc2cccc(F)n2)c1F (racemic) and stop.
80

###

Tested on: Galium (catchweed bedstraw, Galium aparine)
Assay: Test C preemergence
Assay type: in vivo
Details: 31 g ai/ha, 0 is no effect, 100 is complete control
I'd appreciate it if you could supply Plant response rating (scale of 0 to 100), Galium values for the items below.

Specify Plant response rating (scale of 0 to 100), Galium for CC(C)Oc1cccc(C2CN(C)C(=O)C2C(=O)Nc2cccc(F)c2F)c1 (stereo not shown) [Compound 651] and stop.
60

Specify Plant response rating (scale of 0 to 100), Galium for CN1CC(c2ccc(F)c(C(F)(F)F)c2)C(C(=O)Nc2ccccc2S(C)(=O)=O)C1=O (stereo not shown) [Compound 612] and stop.
80

Specify Plant response rating (scale of 0 to 100), Galium for CN1CC(c2cccc(OC(F)F)c2)C(C(=O)Nc2ccc(F)cc2F)C1=O (stereo not shown) [Compound 617] and stop.
0

Specify Plant response rating (scale of 0 to 100), Galium for CN1CC(c2cccc(OC(F)F)c2)C(C(=O)Nc2ccccc2S(C)(=O)=O)C1=O (stereo not shown) [Compound 523] and stop.
0

###

Test system: Kochia (Kochia scoparia)
Experiment: Test A preemergence
Assay type: in vivo
Conditions: Bassia scoparia, pre-emergence, 240 h, 500 g ai/ha, Preemergence, visual injury vs untreated controls after approximately 10 d; read-out: Kochia plant response rating (0 to 100 scale where 0 is no effect and 100 is complete control)
OBSERVABLE: pest or weed control at 500 g/ha (%)
Field: numeric (%). Do not append units.

Recall the reported pest or weed control at 500 g/ha of `CN1C[C@H](c2cccc(F)c2)[C@@H](C(=O)Nc2ccccc2S(C)(=O)=O)C1=O` when tested on Kochia (Kochia scoparia).
70

Recall the reported pest or weed control at 500 g/ha of `COc1c(F)ccc([C@H]2CNC(=O)[C@@H]2C(=O)Nc2ccc(F)cc2F)c1Cl` when tested on Kochia (Kochia scoparia).
60

Recall the reported pest or weed control at 500 g/ha of `COc1c(F)ccc([C@H]2CN(C)C(=O)[C@@H]2C(=O)Nc2ccccc2S(C)(=O)=O)c1Cl` when tested on Kochia (Kochia scoparia).
90

Recall the reported pest or weed control at 500 g/ha of `CC(F)(F)c1cccc([C@H]2CNC(=O)[C@@H]2C(=O)Nc2ccccc2F)c1` when tested on Kochia (Kochia scoparia).
90

###

I'd appreciate it if you could supply Plant response rating, Oilseed Rape values for the items below.
Test system: oilseed rape (Brassica napus)
Assay: Test C preemergence
Type: in vivo
Conditions: 250 g ai/ha, scale 0 to 100, 0 no effect, 100 complete control
Just the number, please, no unit attached.

Specify Plant response rating, Oilseed Rape for CN1CC(c2ccc(F)c(F)c2)C(C(=O)Nc2ccccc2S(C)(=O)=O)C1=O (centres unmarked) and stop.
80

Specify Plant response rating, Oilseed Rape for CN1CC(c2ccc(C(F)(F)F)c(F)c2)C(C(=O)Nc2cccc(F)c2F)C1=O (centres unmarked) and stop.
85

Specify Plant response rating, Oilseed Rape for Cc1ccc(C2CN(C)C(=O)C2C(=O)Nc2ccccc2F)cc1F (centres unmarked) and stop.
90

Specify Plant response rating, Oilseed Rape for CN1CC(c2cc(F)cc(F)c2)C(C(=O)Nc2cccc(F)c2F)C1=O (centres unmarked) and stop.
90

Specify Plant response rating, Oilseed Rape for CN1CC(c2ccc(C(F)(F)F)c(F)c2)C(C(=O)Nc2ccccc2F)C1=O (centres unmarked) and stop.
85

Specify Plant response rating, Oilseed Rape for CN1CC(c2cccc(OC(F)F)c2)C(C(=O)Nc2ccccc2S(C)(=O)=O)C1=O (centres unmarked) and stop.
60

Specify Plant response rating, Oilseed Rape for O=C1NCC(c2ccc(Br)cc2)C1C(=O)Nc1cccc(F)c1F (centres unmarked) and stop.
95

Specify Plant response rating, Oilseed Rape for CC(C)Oc1cccc(C2CN(C)C(=O)C2C(=O)Nc2ccccc2S(C)(=O)=O)c1 (centres unmarked) and stop.
85
